Target: Alpha-2A adrenergic receptor (Homo sapiens, UniProt P08913)
Sequence (P08913 whole entry): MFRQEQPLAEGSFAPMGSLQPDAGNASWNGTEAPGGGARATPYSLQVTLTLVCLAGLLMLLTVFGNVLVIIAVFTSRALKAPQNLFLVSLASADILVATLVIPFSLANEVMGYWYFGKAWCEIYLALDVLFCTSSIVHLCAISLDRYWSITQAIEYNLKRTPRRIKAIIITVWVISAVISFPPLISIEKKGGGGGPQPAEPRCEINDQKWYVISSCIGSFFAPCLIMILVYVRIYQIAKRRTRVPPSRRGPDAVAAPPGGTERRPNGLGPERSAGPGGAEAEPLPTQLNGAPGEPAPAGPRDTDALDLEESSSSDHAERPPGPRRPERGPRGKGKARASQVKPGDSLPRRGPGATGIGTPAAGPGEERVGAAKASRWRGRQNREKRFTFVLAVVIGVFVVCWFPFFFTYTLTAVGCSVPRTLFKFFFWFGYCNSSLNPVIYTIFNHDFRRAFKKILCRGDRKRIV
Hi! Could you tag entries with Ki below 70 nM as Criterion met, and those at or above as Criterion not met? Much appreciated.

Solved entries:
>  <Compound>
COc1cc2c(cc1OC)C1=NOC(CN3CCN(Cc4cccc5ccccc45)CC3)C1CO2 (stereo unspecified)

>  <Tested on>
Alpha-2A adrenergic receptor (Homo sapiens, UniProt P08913)

>  <Assigned label>
Criterion not met

$$$$
>  <Compound>
COc1cc2c(cc1OC)C1=NOC(CN3CCN(Cc4csc5ccccc45)CC3)C1CO2 (stereo unspecified)

>  <Tested on>
Alpha-2A adrenergic receptor (Homo sapiens, UniProt P08913)

>  <Assigned label>
Criterion met

$$$$
>  <Compound>
COc1cc2c(cc1OC)C1=NOC(CN3CCN(Cc4ccc5ncccc5c4)CC3)C1CO2 (stereo unspecified)

>  <Tested on>
Alpha-2A adrenergic receptor (Homo sapiens, UniProt P08913)

>  <Assigned label>
Criterion not met

$$$$
>  <Compound>
COc1ccc2c(c1)C1=NOC(CN3CCN(C/C=C/c4ccccc4)CC3)C1CO2 (stereo unspecified)

>  <Tested on>
Alpha-2A adrenergic receptor (Homo sapiens, UniProt P08913)

>  <Assigned label>
Criterion met

$$$$
>  <Compound>
COc1cc2c(cc1OC)C1=NOC(CN3CCN(Cc4cc5ccccc5s4)CC3)C1CO2 (stereo unspecified)

>  <Tested on>
Alpha-2A adrenergic receptor (Homo sapiens, UniProt P08913)

>  <Assigned label>
Criterion not met

$$$$
>  <Compound>
COc1cc2c(cc1OC)C1=NOC(CN3CCN(CCc4ccccc4)CC3)C1CO2 (stereo unspecified)

>  <Tested on>
Alpha-2A adrenergic receptor (Homo sapiens, UniProt P08913)

>  <Assigned label>
Criterion not met

$$$$
>  <Compound>
COc1cc2c(cc1OC)C1=NOC(CN3CCN(Cc4ccccc4)CC3)C1CO2 (stereo unspecified)

>  <Tested on>
Alpha-2A adrenergic receptor (Homo sapiens, UniProt P08913)

>  <Assigned label>
Criterion not met

$$$$
>  <Compound>
COc1cc2c(cc1OC)C1=NOC(CN3CCN(CCC(=O)c4ccccc4)CC3)C1CO2 (stereo unspecified)

>  <Tested on>
Alpha-2A adrenergic receptor (Homo sapiens, UniProt P08913)

>  <Assigned label>
Criterion met

$$$$

Lab log: compare recorded Ki with 70 nM; is it strictly lower for COc1cc2c(cc1OC)C1=NOC(CN3CCN(CC4=Cc5ccccc5C4)CC3)C1CO2 (stereo unspecified) ?
Criterion met

Lab log: compare recorded Ki with 70 nM; is it strictly lower for COc1cc2c(cc1OC)C1=NOC(CN3CCN(CCCc4ccccc4)CC3)C1CO2 (stereo unspecified) ?
Criterion met

Lab log: compare recorded Ki with 70 nM; is it strictly lower for COc1cc2c(cc1OC)C1=NOC(CN3CCN(Cc4cnc5ccccc5c4)CC3)C1CO2 (stereo unspecified) ?
Criterion met
